- Measured target: Alpha-galactosidase A (Homo sapiens)
- Experiment: Confirmation of Inhibitors of Human alpha-Galactosidase Using Spleen Homogenate
- Experimental setup: alpha-galactosidase enzyme activity; series mostly up to 56.2 µM
Results filed as inconclusive are left out. The source made the active and inactive calls. The call rests on the fitted dose curve; in most records, active means well fitted curve in the direction sought with a large enough effect; inconclusive means small, poorly fitted or top-dose-only effect, or effect the other way, or another doubt; inactive means no such curve, though single readings can be large or run the other way.
Parameter: outcome

Example entries begin here.
[[record]]
molecule = "Cc1cc(C(=O)CS(=O)(=O)c2ccc(F)cc2)cc(C)c1OC(=O)N(C)C"
parameter = "outcome"
reading = "inactive"

[[record]]
molecule = "COc1ccc(Cc2nccc3cc(OC)c(OC)cc23)cc1OC"
parameter = "outcome"
reading = "inactive"

[[record]]
molecule = "CC(C)(C)c1cc(C=C(C#N)C#N)cc(C(C)(C)C)c1O"
parameter = "outcome"
reading = "inactive"

[[record]]
molecule = "O=c1[nH]c(CN2CC=C(c3ccccc3)CC2)nc2scc(-c3cccs3)c12"
parameter = "outcome"
reading = "inactive"

[[record]]
molecule = "Cc1cc(/C=C2/C(=O)NC(=O)N(Cc3ccco3)C2=O)c(C)n1-c1ccc(C(=O)O)cc1"
parameter = "outcome"
reading = "inactive"


stdin: Recorded outcome of `O[C@H]1[C@H](O)[C@@H](O)CN2CC[C@H](O)[C@H]12` , please.
stdout: inactive

stdin: Same read-out for `CC(=O)Nc1ccc(OC(=O)c2ccccc2N)cc1` ?
stdout: inactive

stdin: Same read-out for `CCOc1ccc2cc(C#N)c(=O)oc2c1` ?
stdout: inactive

stdin: Same read-out for `Cc1ccc2c(CN3CC=C(c4ccccc4)CC3)cc(=O)oc2c1C` ?
stdout: inactive

* * *

- Measured target: Alpha-galactosidase A (Homo sapiens) (UniProt P06280)
- Sequence (P06280 32-429 limits assumed): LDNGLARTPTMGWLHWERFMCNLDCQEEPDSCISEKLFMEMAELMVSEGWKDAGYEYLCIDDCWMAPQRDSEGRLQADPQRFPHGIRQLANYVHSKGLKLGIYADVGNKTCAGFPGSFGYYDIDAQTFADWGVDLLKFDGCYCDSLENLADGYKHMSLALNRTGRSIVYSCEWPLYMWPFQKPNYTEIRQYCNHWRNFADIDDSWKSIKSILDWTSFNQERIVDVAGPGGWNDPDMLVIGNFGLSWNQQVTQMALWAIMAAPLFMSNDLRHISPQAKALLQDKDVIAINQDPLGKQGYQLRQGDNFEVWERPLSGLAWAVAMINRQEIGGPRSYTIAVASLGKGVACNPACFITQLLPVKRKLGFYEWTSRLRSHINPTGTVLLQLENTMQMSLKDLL
- Experiment: Confirmation of Inhibitors of Human alpha-Galactosidase Using Spleen Homogenate
- Experimental setup: alpha-galactosidase enzyme activity; series mostly up to 56.2 µM
Inconclusive results are not listed. Active and inactive are the calls of the source. The call rests on the fitted dose curve; in most records, active means well fitted curve in the direction sought with a large enough effect; inconclusive means small, poorly fitted or top-dose-only effect, or effect the other way, or another doubt; inactive means no such curve, though single readings can be large or run the other way.
Parameter: outcome

[[record]]
molecule = "Cc1cc(/C=C2\\C(=O)NC(=O)N(c3ccc(F)cc3)C2=O)c(C)n1-c1ccc(C(=O)O)cc1"
measured_target = "Alpha-galactosidase A (Homo sapiens) (UniProt P06280)"
reading = "inactive"

[[record]]
molecule = "CCCCC/C=C\\C/C=C\\C/C=C\\C/C=C\\CCCC(=O)NCCCC(=O)O"
measured_target = "Alpha-galactosidase A (Homo sapiens) (UniProt P06280)"
reading = "inactive"

[[record]]
molecule = "OC[C@@H]1[C@@H](O)[C@H](O)[C@H]2[C@@H](O)CCN21"
measured_target = "Alpha-galactosidase A (Homo sapiens) (UniProt P06280)"
reading = "inactive"


Sourced from PubChem BioAssay AID2108
